target: human RIP1 kinase domain (2-375) (Homo sapiens (Human), UniProt Q13546); settings: RIP1 kinase inhibition, tight-binding apparent Ki; 50 nM enzyme, 50 μM ATP, 2 hours incubation
Sequence (Q13546 2-375): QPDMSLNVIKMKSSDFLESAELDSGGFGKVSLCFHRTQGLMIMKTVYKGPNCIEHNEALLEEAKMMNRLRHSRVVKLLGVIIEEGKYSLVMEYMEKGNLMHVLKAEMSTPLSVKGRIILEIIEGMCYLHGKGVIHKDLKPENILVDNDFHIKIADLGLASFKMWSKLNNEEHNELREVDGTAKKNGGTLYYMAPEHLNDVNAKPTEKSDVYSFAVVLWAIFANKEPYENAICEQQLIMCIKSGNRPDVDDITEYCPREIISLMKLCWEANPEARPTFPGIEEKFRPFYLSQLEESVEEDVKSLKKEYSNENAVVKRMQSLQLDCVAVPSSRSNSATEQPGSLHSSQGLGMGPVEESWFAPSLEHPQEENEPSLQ
property: Ki (nM)

O=C(c1nc2n(n1)[C@H](c1ccccc1F)C[C@@H]2F)C1CC1 (single isomer, unassigned) ... 4

(A) O=C(c1nc2n(n1)[C@H](c1ccccc1Cl)C[C@@H]2F)C1CC1
(B) O=C(c1nc2n(n1)C(c1ccccc1)CC2)C1(Cn2cccn2)CC1 (stereo not drawn)
Lab note: record which item had the higher Ki, A or B . Please respond with the label that marks your chosen entry.
B

###

molecular target: human RIP1 kinase domain (2-375) (Homo sapiens (Human), UniProt Q13546); experiment: biochemical; conditions: tight-binding apparent inhibition constant (Ki app, Morrison equation), 50 nM enzyme, 50 μM ATP, 2 hours incubation
property: Ki (nM)

Examples with their reported Ki follow.
CC(C)(C)C(=O)c1nc2n(n1)[C@H](c1ccccc1)C[C@@H]2F (stereo in doubt) ... 2830
O=C(c1nc2n(n1)[C@H](c1ccccc1)C[C@@H]2F)c1cccs1 (racemic) ... 26.7

(a) O=C(c1ccccc1)c1nc2n(n1)[C@H](c1ccccc1)C[C@@H]2F (racemic)
(b) CCC(=O)c1nc2n(n1)[C@H](c1ccccc1)[C@@H](F)C2 (racemic)
(c) CCC(=O)c1nc2n(n1)[C@H](c1ccccc1)C[C@@H]2F (racemic)
I would appreciate it if you could sort these 3 compounds by Ki, starting from the smallest number. Labels, ranked as asked.
c, a, b
(c: 3.56 nM, a: 21.2 nM, b: 737 nM)

(1) O=C(c1nc2n(n1)[C@H](c1ccccc1)C[C@@H]2F)C1C2COCC21 (mixture of isomers)
(2) O=C(c1nc2n(n1)[C@H](c1ccccc1)C[C@@H]2F)C1COC1 (racemic)
// returns 1 or 2 , whichever has the lower Ki Please respond with the label that marks your chosen entry.
2

###

biological target: human RIP1 kinase domain (2-375) (Homo sapiens (Human)); test: biochemical; conditions: tight-binding apparent inhibition constant (Ki app, Morrison equation), 50 nM enzyme, 50 μM ATP, 2 hours incubation
property: Ki (nM)

Examples with their reported Ki follow.
O=C(c1nc2n(n1)[C@H](c1ccccc1)C[C@@H]2F)C1(F)CC1 (single isomer, unassigned) [Example 61] ... 0.3
Cn1cc(C(=O)c2nc3n(n2)[C@@H](c2ccccc2)C[C@H]3F)cn1 (stereo in doubt) [Example 39] ... 225
O=C(c1nc2n(n1)[C@H](c1ccccc1)C[C@@H]2F)C1(F)CC1 (racemic) [Example 53] ... 22.4

(I) O=C(c1nc2n(n1)[C@H](c1ccccc1)C[C@@H]2F)C1CCCC1 (racemic)
(II) CC(C)(C)C(=O)c1nc2n(n1)[C@@H](c1ccccc1)C[C@H]2F (stereo in doubt)
(III) O=C(c1nc2n(n1)[C@H](c1ccccc1)C[C@@H]2F)C1(C(F)(F)F)CC1 (racemic)
I would appreciate it if you could sort these 3 compounds by Ki, starting from the smallest number. Labels, ranked as asked.
II, III, I
(II: 4.17 nM, III: 11.2 nM, I: 18.8 nM)

###

biological target: human RIP1 kinase domain (2-375) (Homo sapiens (Human), UniProt Q13546); conditions: RIP1 kinase inhibition, tight-binding apparent Ki; 50 nM enzyme, 50 μM ATP, 2 hours incubation
pKi: −log10 of the molar value.
property: pKi

Examples with their reported pKi follow.
C[C@H]1C[C@@H]1C(=O)c1nc2n(n1)[C@H](c1ccccc1)C[C@@H]2F (single isomer, unassigned) ... 7.82
O=C(c1nc2n(n1)[C@H](c1ccccc1)C[C@@H]2O)C1CC1 (single isomer, unassigned) ... 7.89

(a) N#CC1(C(=O)c2nc3n(n2)[C@H](c2ccccc2)C[C@@H]3F)CC1 (single isomer, unassigned)
(b) O=C(c1nc2n(n1)[C@H](c1ccc(F)cc1)C[C@@H]2F)C1CC1 (single isomer, unassigned)
// returns a or b , whichever has the lower pKi Please respond with the label that marks your chosen entry.
b
(b: 8.05, a: 8.57)

(I) O=C(c1nc2n(n1)[C@H](c1ccccc1)CCC2)C1CC1 (single isomer, unassigned)
(II) O=C(c1nc2n(n1)[C@H](c1ccccc1)C[C@H]2O)C1CC1 (single isomer, unassigned)
(III) COc1cccc([C@@H]2C[C@H](F)c3nc(C(=O)C4CC4)nn32)c1 (single isomer, unassigned)
(IV) O=C(c1nc2n(n1)[C@H](c1ccccc1)C[C@@H]2Cl)C1CC1 (single isomer, unassigned)
(V) Cc1oncc1C1CC(F)c2nc(C(=O)C3CC3)nn21 (centres unmarked)
I would appreciate it if you could sort these 5 compounds by pKi, starting from the smallest number. Labels, ranked as asked.
V, II, I, III, IV
(V: 6.42, II: 6.74, I: 7.15, III: 7.70, IV: 8.40)

(1) O=C(c1nc2n(n1)[C@H](c1ccccc1Cl)CC2)C1CC1 (single isomer, unassigned)
(2) N#Cc1ccccc1[C@@H]1C[C@H](F)c2nc(C(=O)C3CC3)nn21 (single isomer, unassigned)
(3) O=C(c1nc2n(n1)[C@H](c1ccccc1)C[C@@H]2F)C1(CO)CC1 (single isomer, unassigned)
I would appreciate it if you could sort these 3 compounds by pKi, starting from the smallest number. Labels, ranked as asked.
2, 1, 3

(A) O=C(c1nc2n(n1)[C@H](c1ccccc1)C[C@@H]2F)C1CC2(C1)CC2(F)F (some centres unmarked)
(B) O=C(c1nc2n(n1)[C@@H](c1ccccc1)C[C@H]2Cl)C1CC1 (single isomer, unassigned)
Lab note: record which item had the higher pKi, A or B . Please respond with the label that marks your chosen entry.
A
(A: 7.77, B: 6.10)
